system: primary AML patient cells (S025); test: viability relative to DMSO control (fraction); higher = less drug effect (more viable cells); settings: 0.4 µM; 48 h
Reported viability is given for each of the following molecules.
Reply with the value as a number alone.

Example entries begin here.
| molecule | viability |
| --- | --- |
| CC[C@H](Nc1ncnc2[nH]cnc12)c1nc2cccc(F)c2c(=O)n1-c1ccccc1 [Idelalisib] | 1.14 |
| CC(C)c1cc(-c2n[nH]c(=O)n2-c2ccc3c(ccn3C)c2)c(O)cc1O [Ganetespib] | 0.334 |
| Cc1sc2c(c1C)C(c1ccc(Cl)cc1)=N[C@@H](CC(=O)Nc1ccc(O)cc1)c1nnc(C)n1-2 [OTX015] | 0.767 |

// next entry
# lookup: viability of Nc1nc(F)nc2c1ncn2[C@@H]1O[C@H](CO)[C@@H](O)[C@@H]1O [Fludarabine]
0.506

----------
We begin with a simple list: items and their reported viability.
system: primary T-PLL patient cells (S008); test: viability relative to DMSO control (fraction); higher = less drug effect (more viable cells); conditions: 15 µM; 48 h
Keep it simple and answer with nothing but the number.

Would you please look over these solved cases?
| compound | quantitative_result |
| --- | --- |
| CS(=O)(=O)c1ccc(C(=O)Nc2ccc(Cl)c(-c3ccccn3)c2)c(Cl)c1 [Vismodegib] | 0.926 |
| Nc1ncn([C@H]2C[C@H](O)[C@@H](CO)O2)c(=O)n1 [Decitabine (Dacogen)] | 1.01 |
| Oc1ccc(/C=C/c2cc(O)cc(O)c2)cc1 [Resveratrol] | 0.897 |
| O=C(O)CSc1cc(NS(=O)(=O)c2ccc(Br)cc2)c2ccccc2c1O [UMI-77] | 0.815 |
| CCN1CCN(Cc2ccc(Nc3ncc(F)c(-c4cc(F)c5nc(C)n(C(C)C)c5c4)n3)nc2)CC1 | 0.0352 |
| O=C(c1cc(Cc2n[nH]c(=O)c3ccccc23)ccc1F)N1CCN(C(=O)C2CC2)CC1 [Olaparib] | 0.94 |
| CNC(=O)c1cc(Oc2ccc(NC(=O)Nc3ccc(Cl)c(C(F)(F)F)c3)cc2)ccn1 [Sorafenib] | 0.948 |

Param item = N#CC[C@H](C1CCCC1)n1cc(-c2ncnc3[nH]ccc23)cn1 [Ruxolitinib] ; retrieve measured viability.
0.952

----------
tested on: primary AML patient cells (S055); assay: viability relative to DMSO control (fraction); higher = less drug effect (more viable cells); details: 3 µM; 48 h
Quick reference for viability among some compounds
Answer as a number with no unit attached.

| structure_smiles | study_system | viability |
| --- | --- | --- |
| N#Cc1ccnc(N2C(=O)CC[C@H]2C(=O)N(c2cncc(F)c2)[C@H](C(=O)NC2CC(F)(F)C2)c2ccccc2Cl)c1 | primary AML patient cells (S055) | 1.09 |

Could you now consider this next compound?
Which viability value is on record for `Oc1ccc(/C=C/c2cc(O)cc(O)c2)cc1` ?
0.83

----------
test system: primary AML patient cells (S021); experiment: viability relative to DMSO control (fraction); higher = less drug effect (more viable cells); details: 3 µM; 48 h
reported_endpoint: viability
Just the number, please, no unit after it.

Take a look at these entries with their results.
| molecule | reported_endpoint | quantitative_result |
| --- | --- | --- |
| Cc1cc(Nc2ncc(Cl)c(Nc3ccccc3S(=O)(=O)C(C)C)n2)c(OC(C)C)cc1C1CCNCC1 [Ceritinib] | viability | 0.572 |
| Oc1ccc(/C=C/c2cc(O)cc(O)c2)cc1 [Resveratrol] | viability | 0.693 |
| N#CC[C@H](C1CCCC1)n1cc(-c2ncnc3[nH]ccc23)cn1 [Ruxolitinib] | viability | 0.779 |
| O=C(O)CSc1cc(NS(=O)(=O)c2ccc(Br)cc2)c2ccccc2c1O [UMI-77] | viability | 0.961 |
| Nc1nc(Cl)nc2c1ncn2[C@@H]1O[C@H](CO)[C@@H](O)[C@@H]1F [Clofarabine] | viability | 0.21 |
| N#Cc1ccnc(N2C(=O)CC[C@H]2C(=O)N(c2cncc(F)c2)[C@H](C(=O)NC2CC(F)(F)C2)c2ccccc2Cl)c1 [AG-120] | viability | 0.761 |

Item under review: O=C(c1cc(Cc2n[nH]c(=O)c3ccccc23)ccc1F)N1CCN(C(=O)C2CC2)CC1 [Olaparib] . Reported viability?
0.938

Likewise for Nc1nc(=S)c2[nH]cnc2[nH]1 [Thioguanin] ?
0.672

----------
test system: primary AML patient cells (S072); assay: viability relative to DMSO control (fraction); higher = less drug effect (more viable cells); conditions: 15 µM; 48 h
The threshold is 0.7. Values of viability beneath it are tagged T; values meeting or exceeding it are tagged F.

| compound | study_system | label_value |
| --- | --- | --- |
| Nc1nc(Cl)nc2c1ncn2[C@@H]1O[C@H](CO)[C@@H](O)[C@@H]1F [Clofarabine] | primary AML patient cells (S072) | T |
| Nc1ncn([C@H]2C[C@H](O)[C@@H](CO)O2)c(=O)n1 [Decitabine (Dacogen)] | primary AML patient cells (S072) | F |
| CS(=O)(=O)c1ccc(C(=O)Nc2ccc(Cl)c(-c3ccccn3)c2)c(Cl)c1 [Vismodegib] | primary AML patient cells (S072) | F |
| Cc1cc(Nc2ncc(Cl)c(Nc3ccccc3S(=O)(=O)C(C)C)n2)c(OC(C)C)cc1C1CCNCC1 [Ceritinib] | primary AML patient cells (S072) | T |
| O=C(Nc1cccc(C(F)(F)F)c1)Nc1cc(S(=O)(=O)NC2CC2)ccc1-c1ccsc1 [AGI-6780] | primary AML patient cells (S072) | F |

Confirm or reject: viability of N#CC[C@H](C1CCCC1)n1cc(-c2ncnc3[nH]ccc23)cn1 [Ruxolitinib] lies strictly below 0.7
F

Param item: CCc1nc(C(N)=O)c(Nc2ccc(N3CCC(N4CCN(C)CC4)CC3)c(OC)c2)nc1NC1CCOCC1 [Gilteritinib]
T

----------
tested on: primary ALL patient cells (S088); test: viability relative to DMSO control (fraction); higher = less drug effect (more viable cells); details: 0.12 µM; 48 h
Checkbox rule: viability lower than 0.8 = satisfied; viability not lower than 0.8 = not satisfied.

| molecule | label_value |
| --- | --- |
| Nc1ncn([C@H]2C[C@H](O)[C@@H](CO)O2)c(=O)n1 [Decitabine (Dacogen)] | not satisfied |

Does the reported viability of the following molecule sit strictly below 0.8? C[C@@H](Oc1cc(-c2cnn(C3CCNCC3)c2)cnc1N)c1c(Cl)ccc(F)c1Cl [Crizotinib]
not satisfied

----------
test system: primary AML patient cells (S037); assay: viability relative to DMSO control (fraction); higher = less drug effect (more viable cells); details: 0.024 µM; 48 h
Flag rule - viability less than 1 flags y; the remaining entries get n.

Solved cases (3 shown):
| structure_smiles | label_value |
| --- | --- |
| N#Cc1ccnc(N2C(=O)CC[C@H]2C(=O)N(c2cncc(F)c2)[C@H](C(=O)NC2CC(F)(F)C2)c2ccccc2Cl)c1 | n |
| CCc1nc(C(N)=O)c(Nc2ccc(N3CCC(N4CCN(C)CC4)CC3)c(OC)c2)nc1NC1CCOCC1 | n |
| Cc1cc(Nc2ncc(Cl)c(Nc3ccccc3S(=O)(=O)C(C)C)n2)c(OC(C)C)cc1C1CCNCC1 | n |

Here is another compound to look at.
State whether 1 exceeds viability recorded for `Oc1ccc(/C=C/c2cc(O)cc(O)c2)cc1` .
y

----------
tested on: primary MCL patient cells (S068); assay: viability relative to DMSO control (fraction); higher = less drug effect (more viable cells); details: 0.2 µM; 48 h
reported_endpoint: viability
# print the numeric value only

Consider the following illustrative entries.
| molecule | viability |
| --- | --- |
| CC(C)C[C@H](NC(=O)CNC(=O)c1cc(Cl)ccc1Cl)B(O)O | 1.04 |
| CC(C)(C)C[C@@H]1N[C@@H](C(=O)N[C@H]2CC[C@H](O)CC2)[C@H](c2cccc(Cl)c2F)[C@]12C(=O)Nc1cc(Cl)ccc12 | 0.986 |
| Cc1nc(Nc2ncc(C(=O)Nc3c(C)cccc3Cl)s2)cc(N2CCN(CCO)CC2)n1 | 0.341 |

# query: viability of entry `C/C=C1\NC(=O)[C@H]2CSSCC/C=C/[C@H](CC(=O)N[C@H](C(C)C)C(=O)N2)OC(=O)[C@H](C(C)C)NC1=O`
0.0996

Next entry: Nc1cccc2c1CN(C1CCC(=O)NC1=O)C2=O (stereo unspecified) [Lenalidomide]
0.832

Can you check `COc1cccc2c1C(=O)c1c(O)c3c(c(O)c1C2=O)C[C@@](O)(C(=O)CO)C[C@@H]3O[C@H]1C[C@H](N)[C@H](O)[C@H](C)O1` next?
0.307

----------
test system: primary AML patient cells (S091); assay: viability relative to DMSO control (fraction); higher = less drug effect (more viable cells); conditions: 3 µM; 48 h
Binary call on viability with cut-off 1: strictly below means t, and equality or higher means f.

Consider the worked cases shown below.
| structure_smiles | study_system | label_value |
| --- | --- | --- |
| Nc1nc(=S)c2[nH]cnc2[nH]1 | primary AML patient cells (S091) | t |
| O=C(O)CSc1cc(NS(=O)(=O)c2ccc(Br)cc2)c2ccccc2c1O | primary AML patient cells (S091) | f |
| CCc1nc(C(N)=O)c(Nc2ccc(N3CCC(N4CCN(C)CC4)CC3)c(OC)c2)nc1NC1CCOCC1 | primary AML patient cells (S091) | t |
| Cc1cc(Nc2ncc(Cl)c(Nc3ccccc3S(=O)(=O)C(C)C)n2)c(OC(C)C)cc1C1CCNCC1 | primary AML patient cells (S091) | t |

Turning now to a further record.
Is the reported viability for `CNC(=O)c1cc(Oc2ccc(NC(=O)Nc3ccc(Cl)c(C(F)(F)F)c3)cc2)ccn1` strictly below 1?
f
